Here's a roundup of pKi values tested on Melanocortin receptor 4 (Homo sapiens, UniProt P32245), taken from various published works.
Sequence (P32245 whole entry): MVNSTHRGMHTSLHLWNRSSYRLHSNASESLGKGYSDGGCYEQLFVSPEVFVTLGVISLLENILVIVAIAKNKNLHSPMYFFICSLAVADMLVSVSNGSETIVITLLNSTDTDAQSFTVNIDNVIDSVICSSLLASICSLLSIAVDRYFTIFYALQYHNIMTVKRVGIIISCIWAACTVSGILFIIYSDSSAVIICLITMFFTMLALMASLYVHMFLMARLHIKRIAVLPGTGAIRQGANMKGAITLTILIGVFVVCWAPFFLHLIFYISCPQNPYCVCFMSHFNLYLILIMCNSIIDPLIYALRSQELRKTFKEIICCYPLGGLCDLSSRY
# log scale: pKi equals minus log10 of the concentration in mol/L

Here are 10 molecules together with their reported answers.
| MOLECULE | MEASURED_TARGET | pKi |
| --- | --- | --- |
| COc1ccc(Br)cc1CCc1ccccc1-c1nc(C)cn1C | Melanocortin receptor 4 (Homo sapiens, UniProt P32245) | 6.57 |
| CC(C)N1C[C@H](C(=O)N2CCN(C3(CNCc4ccc(F)cc4F)CCCCC3)CC2)[C@@H](c2ccc(Cl)cc2)C1 | Melanocortin receptor 4 (Homo sapiens, UniProt P32245) | 7.96 |
| CCC(C)[C@H](NCCCN)c1cc(C(F)(F)F)ccc1N1CCN(C(=O)CCc2ccc(Cl)cc2Cl)CC1 (some centres not stated) | Melanocortin receptor 4 (Homo sapiens, UniProt P32245) | 7.52 |
| CCC(O)(CC)c1ccccc1N1CCN(C(=O)[C@@H](Cc2ccc(Cl)cc2Cl)NC(=O)CNC)CC1 | Melanocortin receptor 4 (Homo sapiens, UniProt P32245) | 7.89 |
| COc1ccc(CC(C)C(=O)N2CCN(c3ccc(C(F)(F)F)cc3[C@@H](N)CC(C)C)CC2)cc1F (some centres not stated) | Melanocortin receptor 4 (Homo sapiens, UniProt P32245) | 6.70 |
| CC(=O)N1C[C@@H](C(=O)N2CCN(c3ccc(C)cc3[C@@H](N)C(C)C)CC2)[C@H](c2ccc(Cl)cc2)C1 | Melanocortin receptor 4 (Homo sapiens, UniProt P32245) | 6.96 |
| CSCCCN[C@H](Cc1ccc(Cl)cc1Cl)C(=O)N1CCN(c2ccccc2C(N)CC(C)C)CC1 (some centres not stated) | Melanocortin receptor 4 (Homo sapiens, UniProt P32245) | 7.68 |
| CSC[C@H](NC(=O)[C@H](Cc1c[nH]c2ccccc12)NC(=O)[C@H](CCCNC(=N)N)NC(=O)[C@@H](Cc1ccccc1)NC(=O)[C@H](Cc1cnc[nH]1)NC(=O)[C@H](CCC(=O)O)NC(=O)[C@H](CSC)NC(=O)[C@H](CCCNC(=N)N)NC(=O)[C@H](Cc1ccc(O)cc1)NC(C)=O)C(N)=O | Melanocortin receptor 4 (Homo sapiens, UniProt P32245) | 7.88 |
| CC(C)N1C[C@H](C(=O)N2CCN(C3(CNCc4ccsc4)CCCCC3)CC2)[C@@H](c2ccc(Cl)cc2)C1 | Melanocortin receptor 4 (Homo sapiens, UniProt P32245) | 7.66 |
| CC(C)CC(O)c1ccccc1N1CCN(C(=O)[C@@H](Cc2ccc(Cl)cc2Cl)NC(=O)[C@H](C)N)CC1 (some centres not stated) | Melanocortin receptor 4 (Homo sapiens, UniProt P32245) | 7.80 |

Prompt: Please give the measured pKi for this molecule: `CC(C)C(=O)N1C[C@@H](C(=O)N2CCN(c3c(F)cccc3[C@@H](N)C(C)C)CC2)[C@H](c2ccc(Cl)cc2)C1`
Response: 6.60

Prompt: Name the recorded pKi for `CC(C)C[C@H](N)c1cccnc1N1CCN(C(=O)CCc2ccc(Cl)cc2Cl)CC1` .
Response: 6.05

Prompt: Would you mind telling me what pKi value was observed for CSCCCN[C@H](Cc1ccc(Cl)cc1Cl)C(=O)N1CCN(c2ccccc2C(O)CC(C)C)CC1 (some centres not stated) ?
Response: 6.48

Prompt: Name the reported pKi value associated with the molecule `N=C(N)NCCNC(=O)[C@H]1C[C@@H](OCc2ccc3ccccc3c2)CN1C(=O)[C@@H](Cc1ccccc1)NC(=O)[C@@H]1CCCCN1`
Response: 5.86

Prompt: Record request: pKi value, item CC(NCCc1ccccc1F)c1ccccc1N1CCN(C(=O)[C@@H](Cc2ccc(Cl)cc2)NC(=O)[C@H]2Cc3ccccc3CN2)CC1 (some centres not stated)
Response: 7.48

Prompt: # query: pKi of entry `CC[C@H](C)[C@@H]1NC(=O)[C@H]([C@@H](C)O)NC(=O)[C@H](Cc2c[nH]c3ccccc23)NC(=O)[C@H](CCCN=C(N)N)NC(=O)[C@@H](Cc2cccc3ccccc23)NC(=O)[C@H](Cc2c[nH]cn2)NC(=O)[C@H]([C@@H](C)O)NC(=O)[C@H](Cc2ccc(O)cc2)NC(=O)[C@H]([C@@H](C)O)NC(=O)[C@@H]2CCCN2C1=O`
Response: 8.82

Prompt: Query: pKi; subject: `Cc1cccc(CCC(=O)N2CCN(c3ccc(C(F)(F)F)cc3[C@@H](N)CC(C)C)CC2)c1`
Response: 5.68

Prompt: Can you share its pKi? I mean this molecule: `O=C(C1CCCC1)N1C[C@H](C(=O)N2CCN(C3(CNCc4ccccc4)CCCCC3)CC2)[C@@H](c2ccc(Cl)cc2)C1`
Response: 6.74

Prompt: State the recorded pKi for this entry: `N=C(N)NCCC[C@H]1C[C@H](OCc2ccc3ccccc3c2)CN1C(=O)[C@@H](Cc1ccccc1)NC(=O)[C@@H]1Cc2ccccc2CN1`
Response: 7.01

Prompt: Request the reported pKi associated with `CC(C)N1C[C@@H](C(=O)N2CCN(c3ccccc3Cn3cncn3)CC2)[C@H](c2ccc(Cl)cc2)C1`
Response: 6.49

Prompt: Which value of pKi has been reported for `COc1ccc(CCC(=O)N2CCN(c3ccc(C(F)(F)F)cc3[C@@H](N)CC(C)C)CC2)cc1OC` in the records?
Response: 5.37

Prompt: Quick one: pKi of NCCNC(COCc1ccccc1)c1cc(F)ccc1N1CCN(C(=O)CCc2ccc(Cl)cc2Cl)CC1 (configuration not stated) ?
Response: 6.40

Prompt: # input molecule: `CSCC[C@H](NC(=O)[C@H](CCCNC(=N)N)NC(=O)[C@H](Cc1ccc(O)cc1)NC(C)=O)C(=O)N[C@@H](CCC(=O)O)C(=O)N[C@@H](Cc1cnc[nH]1)C(=O)N[C@H](Cc1ccccc1)C(=O)N[C@@H](CCCNC(=N)N)C(=O)N[C@@H](Cc1c[nH]c2ccccc12)C(=O)NCC(=O)N[C@@H](CO)C(=O)N1CCC[C@H]1C(=O)N1CCC[C@H]1C(=O)N[C@@H](CCCCN)C(=O)N[C@@H](CC(=O)O)C(N)=O` ; wanted: its pKi
Response: 9.57

Prompt: Field request: pKi | item: `CC(C)C[C@H](N)c1cc(C(F)(F)F)ccc1N1CCN(C(=O)COc2ccccc2Cl)CC1`
Response: 5.35

Prompt: If you can, please state the reported pKi value of `COc1ccccc1CCNCc1cccnc1N1CCN(C(=O)[C@@H](Cc2ccc(Cl)cc2Cl)NC(C)=O)CC1` .
Response: 8.00

Prompt: What value of pKi has been recorded for this entry: `CC(C)N1C[C@H](C(=O)N2CCN(C3(CNCc4ccncc4)CCCCC3)CC2)[C@@H](c2ccc(Cl)cc2)C1`
Response: 7.57

Prompt: Which pKi is reported for this molecule? CC(N)C(=O)N1C[C@H](C(=O)N2CCN(C3(CNCc4ccccc4)CCCCC3)CC2)[C@@H](c2ccc(Cl)cc2)C1 (some centres not stated)
Response: 6.37
